# Tested on: HCT-116
# method: Antiproliferative activity against human HCT116 p53+/+ cells assessed as growth inhibition after 24 hrs by EdU/Hoechst 33342 staining-based fluorescence analysis
# Assay type: functional
# experimental.parameters: HCT-116, 24 h
Task for the reader: assign each of the following compounds its reported GI50.
The reply should consist of the numeric value with the unit placed after it.

Note GI50 for the compound shown: COc1ccc(C2=N[C@@H](c3ccc(Cl)cc3)[C@@H](c3ccc(Cl)cc3)N2C(=O)N2CCNC(=O)C2)c(OC(C)C)c1
9 µM

Note GI50 for the compound shown: Cc1cccc(CNC(=O)[C@@H]2[C@@H](c3ccc(Cl)cc3)N(c3ccc(Cl)cc3)C(=O)CN2C(=O)c2ccncc2)c1 (racemic)
30 µM

Note GI50 for the compound shown: COc1cc(CNC(=O)[C@H]2CCC(=O)N(c3ccccc3)[C@@H]2c2ccc(Cl)cc2)ccc1OC(C)C (racemic)
26 µM

Note GI50 for the compound shown: O=C(NCc1ccccc1CN1CCCC1=O)[C@H]1CC(=O)N(c2ccc(F)c(Cl)c2)[C@@H]1c1ccc(Cl)cc1 (racemic)
7 µM

Note GI50 for the compound shown: CC(C)[C@@H](CS(=O)(=O)C(C)C)N1C(=O)[C@@](C)(CC(=O)O)C[C@H](c2cccc(Cl)c2)[C@H]1c1ccc(Cl)cc1
7 µM

Note GI50 for the compound shown: O=C(NCc1ccc(Cl)cc1)[C@H]1OCC(=O)N(c2cccc(Cl)c2)[C@@H]1c1cccc(C(F)(F)F)c1 (relative stereo)
12 µM

Note GI50 for the compound shown: O=C(NCc1ccc2c(c1)OCO2)[C@H]1OCC(=O)N(c2cccc(Cl)c2)[C@@H]1c1ccc(Cl)cc1 (racemic)
20 µM

Note GI50 for the compound shown: O=C(NCc1ccc2c(c1)OCO2)[C@H]1CC(=O)N(c2cccc(Cl)c2)[C@@H]1c1cccc(F)c1 (racemic)
19 µM

Note GI50 for the compound shown: CC(C)(C)C[C@@H]1N[C@@H](C(=O)N[C@H]2CC[C@H](O)CC2)[C@H](c2cccc(Cl)c2F)[C@]12C(=O)Nc1cc(Cl)ccc12
6 µM

Note GI50 for the compound shown: COc1ccc(CNC(=O)[C@H]2CC(=O)N(c3ccc(F)c(Cl)c3)[C@@H]2c2ccc(Cl)cc2)c(OC)c1 (racemic)
22 µM

Note GI50 for the compound shown: O=C(NCc1ccc2c(c1)OCO2)[C@H]1CC(=O)N(c2ccc(F)c(Cl)c2)[C@@H]1c1ccc(Cl)cc1 (racemic)
8 µM

Note GI50 for the compound shown: COc1ccc(CNC(=O)[C@H]2OCC(=O)N(c3ccc(F)c(Cl)c3)[C@@H]2c2ccc(Cl)cc2)cc1 (racemic)
18 µM

----------
# System: U2OS
# method: Cytotoxicity against human U2OS cells harboring p53-dependent EGFP reporter gene assessed as reduction in cell viability at 5 uM after 48 hrs
# Type: cell-based
recorded.endpoint: Activity

These solved cases illustrate the format of a correct answer.
INSERT INTO assay_data (compound, target_desc, recorded_value) VALUES
  ('COc1cc(CNC(=O)[C@H]2CCC(=O)N(c3ccccc3)[C@@H]2c2ccc(Cl)cc2)ccc1OC(C)C (racemic)', 'U2OS', 'Toxic'),
  ('CCOc1ccc(CNC(=O)[C@H]2OCC(=O)N(c3ccc(F)c(F)c3)[C@@H]2c2cccc(C)c2)cc1 (mixture of isomers)', 'U2OS', 'Toxic'),
  ('O=C(NCc1ccc2c(c1)OCO2)[C@H]1OCC(=O)N(c2cccc(Cl)c2)[C@@H]1c1ccc(Cl)cc1 (racemic)', 'U2OS', 'Toxic'),
  ('COc1ccc(CN(CCCN2CCOCC2)C(=O)[C@H]2OCC(=O)N(c3ccc(Cc4ccncc4)cc3)[C@@H]2c2ccc(Cl)cc2)cc1 (racemic)', 'U2OS', 'Toxic');

Note Activity for the compound shown: CCOc1cccc(CNC(=O)[C@H]2OCC(=O)N(c3ccc(F)c(Cl)c3)[C@@H]2c2cccc(F)c2)c1 (racemic)
Toxic

Note Activity for the compound shown: CCOc1ccc(CNC(=O)[C@H]2CC(=O)N(c3cccc(Cl)c3)[C@@H]2c2ccc(Cl)cc2)cc1 (racemic)
Toxic

Note Activity for the compound shown: O=C(NCc1ccc2c(c1)OCO2)[C@H]1CC(=O)N(c2cccc(Cl)c2)[C@@H]1c1cccc(F)c1 (racemic)
Toxic

Note Activity for the compound shown: Cc1cccc(CNC(=O)[C@@H]2[C@@H](c3ccc(Cl)cc3)N(c3ccc(Cl)cc3)C(=O)CN2C(=O)c2ccncc2)c1 (racemic)
Toxic

Note Activity for the compound shown: COc1ccc(CNC(=O)[C@H]2OCC(=O)N(c3ccc(F)c(Cl)c3)[C@@H]2c2ccc(Cl)cc2)cc1 (racemic)
Toxic

Note Activity for the compound shown: COc1ccc(CNC(=O)[C@H]2CC(=O)N(c3ccc(F)c(Cl)c3)[C@@H]2c2ccc(Cl)cc2)c(OC)c1 (racemic)
Toxic

----------
# Test system: HCT-116
# method: Antiproliferative activity against human HCT116 p53-/- cells assessed as growth inhibition after 24 hrs by EdU/Hoechst 33342 staining-based fluorescence analysis
# Format: functional
# experimental.parameters: HCT-116, 24 h
recorded.endpoint: GI50 (µM)
# output: bare number, implied unit µM

Note GI50 for the compound shown: Cc1cccc(CNC(=O)[C@@H]2[C@@H](c3ccc(Cl)cc3)N(c3ccc(Cl)cc3)C(=O)CN2C(=O)c2ccncc2)c1 (racemic)
80

Note GI50 for the compound shown: O=C(NCc1ccc2c(c1)OCO2)[C@H]1CC(=O)N(c2cccc(Cl)c2)[C@@H]1c1cccc(F)c1 (racemic)
65

Note GI50 for the compound shown: CC(C)(C)C[C@@H]1N[C@@H](C(=O)N[C@H]2CC[C@H](O)CC2)[C@H](c2cccc(Cl)c2F)[C@]12C(=O)Nc1cc(Cl)ccc12
38

Note GI50 for the compound shown: O=C(NCc1ccc(Cl)cc1)[C@H]1OCC(=O)N(c2cccc(Cl)c2)[C@@H]1c1cccc(C(F)(F)F)c1 (relative stereo)
40

Note GI50 for the compound shown: COc1cc(CNC(=O)[C@H]2CCC(=O)N(c3ccccc3)[C@@H]2c2ccc(Cl)cc2)ccc1OC(C)C (racemic)
81

Note GI50 for the compound shown: COc1ccc(C2=N[C@@H](c3ccc(Cl)cc3)[C@@H](c3ccc(Cl)cc3)N2C(=O)N2CCNC(=O)C2)c(OC(C)C)c1
29

Note GI50 for the compound shown: O=C(NCc1ccc2c(c1)OCO2)[C@H]1OCC(=O)N(c2cccc(Cl)c2)[C@@H]1c1ccc(Cl)cc1 (racemic)
72

Note GI50 for the compound shown: CC(C)[C@@H](CS(=O)(=O)C(C)C)N1C(=O)[C@@](C)(CC(=O)O)C[C@H](c2cccc(Cl)c2)[C@H]1c1ccc(Cl)cc1
33

Note GI50 for the compound shown: COc1ccc(CNC(=O)[C@H]2CC(=O)N(c3ccc(F)c(Cl)c3)[C@@H]2c2ccc(Cl)cc2)c(OC)c1 (racemic)
71

Note GI50 for the compound shown: O=C(NCc1ccccc1CN1CCCC1=O)[C@H]1CC(=O)N(c2ccc(F)c(Cl)c2)[C@@H]1c1ccc(Cl)cc1 (racemic)
32

Note GI50 for the compound shown: COc1ccc(CNC(=O)[C@H]2OCC(=O)N(c3ccc(F)c(Cl)c3)[C@@H]2c2ccc(Cl)cc2)cc1 (racemic)
62

Note GI50 for the compound shown: O=C(NCc1ccc2c(c1)OCO2)[C@H]1CC(=O)N(c2ccc(F)c(Cl)c2)[C@@H]1c1ccc(Cl)cc1 (racemic)
29
